Here the recorded normalized growth is given for each entry.
- ASSAY PROTOCOL: chemical genetic growth profiling, strain panel (AID 1159580);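 note: tested at 20 µM; growth read once vehicle control cultures reached saturation at 30 °C; 1 = growth at the plate median or of vehicle wells; lower values mean less growth of the strain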
- CONDITION LABEL: S. cerevisiae deletion strains, growth OD, locus YDR335W, strain msn5, stronger effect = lower value
In all, about 5,500 compounds went through this assay and about 2,000 (36%) were called active. Inconclusive results (about 18%) are left out. The list shows a part of the results.
Field format: numeric only.

# example entries with known answers
> print(dat)
                                   compound  measured
1  CCCC(=O)O[C@]1(C(=O)CO)CCC2[C@@H]3CCC4=CC(=O)CC[C@]4(C)C3[C@@H](O)C[C@@]21C (stereo not given in full)         1
2  NS(=O)(=O)c1cc2c(cc1Cl)NC(C(Cl)Cl)NS2(=O)=O (stereo not given)     0.963

Value lookup for normalized growth; key = `Cc1ccc(Cl)c(Nc2ccccc2C(=O)O)c1Cl`
0.896

Reported normalized growth for `Cc1c(Cl)cccc1Nc1ccccc1C(=O)O` : what is it?
0.836

// lookup normalized growth for C=C1C(=O)OC2CC1C(OC(C)=O)C/C(C)=C/CC/C(C)=C/CC[C@]2(C)O (stereo not given in full)
0.985
